- Tested on: DNA aptamer or structured DNA CTTACGACTAGTTCCGGGTAGGGGTAGGCGTGGTTGTGGTCGTAAG
- EXPERIMENTAL_PARAMETERS: 10 mM Tris-HCl, pH 7.4
pKd: −log10 of the molar value.
MEASURED_ENDPOINT: pKd

In [3]: df
Out[3]:
                                   compound  measured_endpoint  experimental_value
0  COC(=O)[C@@H]1C2CCC(C[C@@H]1OC(=O)c1ccccc1)N2C (stereo partly specified)                pKd                7.15

###

- Tested on: DNA aptamer or structured DNA CTTACGACTACGGTTGGTTCAGGGGGTAGGTGCTTTGGGTCGTAAG
- EXPERIMENTAL_PARAMETERS: 10 mM Tris-HCl, pH 7.4
MEASURED_ENDPOINT: binding call; also: call rule not given here

>>> df
                                    compound  measured_endpoint  experimental_value
 0  CN1C2CCC1[C@@H](C(=O)O)[C@@H](OC(=O)c1ccccc1)C2 (stereo not given in full)       binding call               binds
 1                      CN[C@@H](C)Cc1ccccc1       binding call          no binding
 2  CN1CC[C@]23c4c5ccc(O)c4O[C@H]2[C@@H](O)C=C[C@H]3[C@H]1C5       binding call          no binding
 3       CN1C(=O)CN=C(c2ccccc2)c2cc(Cl)ccc21       binding call          no binding
 4                Cn1c(=O)c2c(ncn2C)n(C)c1=O       binding call          no binding
 5  CNC(C)Cc1ccc2c(c1)OCO2 (stereo not given)       binding call          no binding
 6                         NCCc1ccc(O)c(O)c1       binding call               binds
 7                        CC(=O)Nc1ccc(O)cc1       binding call          no binding
 8                       CCOC(=O)c1ccc(N)cc1       binding call               binds
 9                CCN(CC)CCOC(=O)c1ccc(N)cc1       binding call               binds
10  C=C[C@H]1CN2CC[C@@H]1C[C@H]2[C@H](O)c1ccnc2ccc(OC)cc12       binding call          no binding
11  CCCC(C(=O)c1ccc2c(c1)OCO2)N1CCCC1 (stereo not given)       binding call          no binding
12                    NCCc1c[nH]c2ccc(O)cc12       binding call               binds
13  CNC(C)C(=O)c1ccc(C)cc1 (stereo not given)       binding call               binds
14  COC(=O)C(c1ccccc1)C1CCCCN1 (stereo not given)       binding call          no binding

###

- System: DNA aptamer or structured DNA GGGACGACGAGGGCACGTCTGTGTGCAGGGTTTCGCGCGTCGTCCC
- EXPERIMENTAL_PARAMETERS: 10 mM Tris-HCl, pH 7.4
MEASURED_ENDPOINT: Kd (µM)

                                 mol_smiles                          target_or_system  measured_endpoint  unit_annotation  experimental_value
0  CC(=O)Oc1ccc2c3c1O[C@H]1[C@@H](OC(C)=O)C=C[C@H]4[C@@H](C2)N(C)CC[C@@]341  DNA aptamer or structured DNA GGGACGACGAGGGCACGTCTGTGTGCAGGGTTTCGCGCGTCGTCCC                 Kd               µM                3.76
